All figures here come from patent US8476229B2.

Test system: normal mice (BALB/c)
Assay: Glucose challenge after oral administration of polypeptide, normal mice; blood sugar value by blood sugar meter
Assay type: in vivo
Settings: BALB/c fasted 18 hrs; 50 mg/kg-body weight oral; 4 g/kg glucose i.p. after 15 minutes; blood sugar after 180 minutes; relative to water control
Source text: The following materials were adopted in the examples: • (A) Experimental subjects: two strains of mice, BALB/c (the metabolism of blood sugar is normal) and ob/ob (spontaneous diabetes type 2), were used to conduct experiments, and they were provided by the National Laboratory Animal Center, Taiwan. • (B) Polypeptides: polypeptides with amino acid sequences shown in Table 1 were produced by the solid phase synthesis method. […]
endpoint-name: Inhibition Rate (%) toward the blood sugar values
Supply the numeric figure in %, leaving out any unit text.

Solved cases (3 shown):
sequence	observed-result
RVRVWVTERGIVAR (MOMORDICA …) [SEQ ID NO: 10]	34.5
RVRIWVNKRGLVVSPPRIG (CUCURBITA MAXIMA) [SEQ ID NO: 1]	15.7
DENRVRIWVDTVAKTPTIG (ORYZA SATIVA) [SEQ ID NO: 9]	60.2

Input line: Look up normal mice (BALB/c) data: Inhibition Rate (%) toward the blood sugar values of RVRVWVDSYGIVSMVPKIG (VITIS VINIFERA) [SEQ ID NO: 4] , then report it.
Output line: 67.8

Input line: Look up normal mice (BALB/c) data: Inhibition Rate (%) toward the blood sugar values of RVWVWVNSKGIVIRTPIIT (ZINNIA ELEGANS) [SEQ ID NO: 2] , then report it.
Output line: 24.5

====

test system: normal mice (BALB/c); test: Glucose challenge after oral administration of polypeptide, normal mice; blood sugar value by blood sugar meter; assay type: in vivo; conditions: BALB/c fasted 18 hrs; 50 mg/kg-body weight oral; 4 g/kg glucose i.p. after 15 minutes; blood sugar after 180 minutes; relative to water control
One threshold, 30%, splits the recorded Inhibition Rate (%) toward the blood sugar values values: lower ones are fulfilled, equal or higher ones are not fulfilled.

Input line: Input RVRVWVDEIRIVVRNPTAG (ARABIDOPSIS THALIANA) [SEQ ID NO: 8] ; condition: Inhibition Rate (%) toward the blood sugar values strictly below 30%. Does it hold?
Output line: fulfilled

Input line: Input RVRVWVDENGIVTRVPVIG (SAMBUCUS NIGRA) [SEQ ID NO: 7] ; condition: Inhibition Rate (%) toward the blood sugar values strictly below 30%. Does it hold?
Output line: not fulfilled

Input line: Input RVRVWVNKKGKVIRVPRIG (CITRUS PARADISI) [SEQ ID NO: 6] ; condition: Inhibition Rate (%) toward the blood sugar values strictly below 30%. Does it hold?
Output line: fulfilled

Input line: Input RVWVWINKDEIVYQVPTIG (MEDICAGO TRUNCATULA) [SEQ ID NO: 3] ; condition: Inhibition Rate (%) toward the blood sugar values strictly below 30%. Does it hold?
Output line: not fulfilled
